Assign metabolised at 2 h, 30 µM to each entry below.
# procedure-text: In vitro immunoproteasome digestion of 27mer peptides, MS/MS analysis
# Type: in vitro ADME
# test-parameters: immunoproteasomes isolated from T2.27mp cells; 3 nmol 27mer, 1 µg immunoproteasome, Hepes/KOH pH 7.8; MS intensity; 2 h; read-out: substrate degraded after 2 h
Ends that are not written are not given here.
Kindly answer with a numeric value in %, unit omitted.

# metabolised at 2 h, 30 µM (sequence: MGKSSRREGFQPRSDTHVFSIIRRSHP [Q9VF/5D substrate] ) is 96

Value of metabolised at 2 h, 30 µM reported for the sequence MGKSSRREGFQPRSNTHVFSIIRRSHP [Q9VF/5N substrate] is 96
